Target: DNA polymerase kappa (Homo sapiens)
Assay: qHTS for Inhibitors of Polymerase Kappa; further: potency means the concentration at half of the fitted maximal effect
Settings: purified Pol kappa, fluorescent DNA synthesis assay, 10 min; series mostly up to 107 µM
From the text: The processing and repair of DNA interstrand crosslinks (ICL) in eukaryotic cells are extremely complex, potentially involving multiple DNA repair and damage tolerance pathways, including homologous recombination, nucleotide excision repair, translesion synthesis (TLS), and cell cycle checkpoints. To that end, in a collaboration between the Oregon Health & Science University and the NIH Chemical Genomics Center a 1536-well high-throughput screen was developed. […]
Hit rate of the full screen: of about 400,000 compounds, about 2,200 (0.55%) were called active. Not shown: some 1% with an inconclusive outcome. This is one part of a sample in which actives are shown more often than they occur.
measureName: Potency

Q: Which measured Potency value corresponds to CC(=O)Oc1c2c(c3c(c1CC=C(C)C)O[C@@]14C(=CC5CC1C(C)(C)OC4(C/C=C(\C)C(=O)O)C5=O)C3=O)OC(C)(CCC=C(C)C)C=C2 (some centres not stated) ?
Result: 31.6 µM (active)

* * *

target: DNA polymerase kappa (Homo sapiens); test: qHTS for Inhibitors of Polymerase Kappa; settings: purified Pol kappa, fluorescent DNA synthesis assay, 10 min; series mostly up to 107 µM
Out of some 400,000 compounds screened, about 2,200 (0.55%) were called active. Another 1% or so got no clear call; they are omitted. Calls follow the shape of the dose curve; as a rule, active = well fitted inhibition curve with a large enough effect; inconclusive = small, poorly fitted or top-dose-only effect, or another doubt; inactive = no such curve, though single readings can be large or run the other way. Shown is part of a subset that was picked to be rich in actives.
I would appreciate it if you answered using one of these outcomes: active, inactive

Here are 10 compounds together with their reported answers.
compound: COc1ccc(CNc2ncnc3ccc(-c4cccnc4)cc23)c(OC)c1
measurementTarget: DNA polymerase kappa (Homo sapiens)
className: inactive
//
compound: O=c1/c(=C/c2ccc(CNS(=O)(=O)c3ccccc3)o2)sc2n1CCN=2
measurementTarget: DNA polymerase kappa (Homo sapiens)
className: inactive
//
compound: Nc1nc2nc(Cl)[nH]c2c(=O)[nH]1
measurementTarget: DNA polymerase kappa (Homo sapiens)
className: inactive
//
compound: O=C(Nc1ccc([N+](=O)[O-])cc1)c1cnn2c1NC(=C1CC1)C=C2C(F)F
measurementTarget: DNA polymerase kappa (Homo sapiens)
className: inactive
//
compound: COc1ccccc1C(=O)NC(=O)COC(=O)c1ccco1
measurementTarget: DNA polymerase kappa (Homo sapiens)
className: inactive
//
compound: O=c1nc2s/c(=C\c3ccco3)c(=O)n2nc1Cc1ccccc1
measurementTarget: DNA polymerase kappa (Homo sapiens)
className: active
//
compound: O=C(NC(=S)Nc1ncccn1)c1ccccc1Br
measurementTarget: DNA polymerase kappa (Homo sapiens)
className: inactive
//
compound: O=C(O)c1ccc(NN=CC2=C(N3CCOCC3)/C(=C/c3ccccc3)CC2)cc1
measurementTarget: DNA polymerase kappa (Homo sapiens)
className: active
//
compound: Cc1ccc(C(=O)N/C(=C\c2ccco2)C(=O)NC2CCS(=O)(=O)C2)cc1 (configuration not stated)
measurementTarget: DNA polymerase kappa (Homo sapiens)
className: inactive
//
compound: O=C(/C=C/c1ccco1)NC(=S)Nc1ccccc1Br
measurementTarget: DNA polymerase kappa (Homo sapiens)
className: active

Shifting focus to the compound that follows.
Q: What call does the record list for C/C=C/NNC(=O)Cc1ccc(OC)cc1 ?
Result: inactive

* * *

biological target: DNA polymerase kappa (Homo sapiens) (UniProt Q9UBT6); test: qHTS for Inhibitors of Polymerase Kappa; conditions: purified Pol kappa, fluorescent DNA synthesis assay, 10 min; series mostly up to 107 µM; further: potency means the concentration at half of the fitted maximal effect
Sequence (Q9UBT6 whole entry, looked up): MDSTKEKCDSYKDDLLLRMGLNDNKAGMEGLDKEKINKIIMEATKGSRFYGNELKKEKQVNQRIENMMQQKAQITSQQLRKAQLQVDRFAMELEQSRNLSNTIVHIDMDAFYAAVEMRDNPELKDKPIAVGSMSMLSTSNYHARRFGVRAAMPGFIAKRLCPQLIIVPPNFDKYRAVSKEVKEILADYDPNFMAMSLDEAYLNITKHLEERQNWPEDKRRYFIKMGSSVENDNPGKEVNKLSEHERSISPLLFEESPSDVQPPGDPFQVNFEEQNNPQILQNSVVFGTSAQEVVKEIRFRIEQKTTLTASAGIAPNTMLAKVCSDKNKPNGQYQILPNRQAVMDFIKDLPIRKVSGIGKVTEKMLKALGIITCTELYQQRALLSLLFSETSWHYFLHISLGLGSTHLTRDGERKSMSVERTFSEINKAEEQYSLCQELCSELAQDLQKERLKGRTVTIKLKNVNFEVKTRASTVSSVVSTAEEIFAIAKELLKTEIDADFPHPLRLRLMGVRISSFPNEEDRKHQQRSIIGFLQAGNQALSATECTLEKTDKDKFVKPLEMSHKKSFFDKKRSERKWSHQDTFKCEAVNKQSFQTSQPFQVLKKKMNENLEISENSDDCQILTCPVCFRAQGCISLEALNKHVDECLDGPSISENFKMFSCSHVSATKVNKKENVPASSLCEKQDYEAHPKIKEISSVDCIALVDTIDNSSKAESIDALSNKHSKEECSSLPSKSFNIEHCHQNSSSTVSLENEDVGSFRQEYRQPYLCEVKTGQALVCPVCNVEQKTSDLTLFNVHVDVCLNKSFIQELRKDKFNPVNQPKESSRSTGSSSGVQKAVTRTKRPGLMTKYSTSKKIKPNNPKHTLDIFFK
Hit rate of the full screen: of about 400,000 compounds, about 2,200 (0.55%) were called active. Roughly 1% stayed inconclusive and do not appear here. For the sample, actives were picked, then their nearest neighbours and some compounds at random.
measureName: Potency

See these solved cases before continuing.
molecule: COC1[C@H](OC(N)=O)C(O)[C@H](Oc2ccc3c(O)c(NC(=O)c4ccc(O)c(CC=C(C)C)c4)c(=O)oc3c2C)OC1(C)C (stereo not given in full)
readoutValue: inactive
--
molecule: CC1(C)CC(=O)c2cc(C(=O)NCc3ccccc3)c(=O)[nH]c2C1
readoutValue: inactive
--
molecule: Cn1cccc1C(=O)N1CCC2(CC1)CN(c1cccc(-c3ccccc3)c1)C2
readoutValue: inactive
--
molecule: Cc1ccc(Cc2cnc(N)s2)o1
readoutValue: 15.8 µM (active)
--
molecule: CC(C)C(NS(=O)(=O)c1ccc(-c2ccc(Br)cc2)cc1)C(=O)O (stereo not given)
readoutValue: inactive

Q: Potency of COc1ccc(/C=C/c2ccnc3ccccc23)cc1OC on DNA polymerase kappa (Homo sapiens) (UniProt Q9UBT6)?
Result: inactive

Q: Also COc1ccccc1CNc1ccnc(-c2c(C)noc2C)n1 , if possible.
Result: inactive

Q: Also CN(C)c1ccc(/C=C/c2sc3ccccc3[n+]2CCCCBr)cc1 , if possible.
Result: inactive

Q: Also COc1cccc2c1C(=O)c1c(O)c3c(c(O)c1C2=O)CC(O)(C(C)=NNC(=O)c1ccc(Cl)c(Cl)c1)CC3OC1CC(N)C(O)C(C)O1 (stereo not given) , if possible.
Result: 17.8 µM (active)

Q: Also O=c1cc(-c2ccc(O)c(O)c2)oc2cccc(O)c12 , if possible.
Result: 6.31 µM (active)
